Target: human PTH1 receptor (Homo sapiens, UniProt Q03431)
Sequence (Q03431 27-593): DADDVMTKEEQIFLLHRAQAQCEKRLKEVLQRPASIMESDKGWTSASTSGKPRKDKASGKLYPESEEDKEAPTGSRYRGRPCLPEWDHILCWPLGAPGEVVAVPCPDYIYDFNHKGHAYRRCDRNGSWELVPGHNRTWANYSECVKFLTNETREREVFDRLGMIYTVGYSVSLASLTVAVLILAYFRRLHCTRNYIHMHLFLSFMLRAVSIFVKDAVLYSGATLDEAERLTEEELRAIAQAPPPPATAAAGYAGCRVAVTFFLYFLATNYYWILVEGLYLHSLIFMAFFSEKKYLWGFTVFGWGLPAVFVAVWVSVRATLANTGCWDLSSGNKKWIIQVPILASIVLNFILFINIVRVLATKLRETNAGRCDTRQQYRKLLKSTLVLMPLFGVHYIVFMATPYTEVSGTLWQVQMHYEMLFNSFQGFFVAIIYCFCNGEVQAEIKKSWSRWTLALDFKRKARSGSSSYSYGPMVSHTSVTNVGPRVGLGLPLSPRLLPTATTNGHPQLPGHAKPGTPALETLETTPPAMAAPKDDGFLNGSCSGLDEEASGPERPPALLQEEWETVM
Experiment: In vitro cAMP signal activity in HKRK-B7 cells (LLC-PK1 cells overexpressing the human PTH1 receptor)
Assay type: cell-based
Conditions: HKRK-B7 cells; compound at 1×10^−3 M; cAMP produced as percentage of that produced by hPTH(1-34) at 100 nM
Binarize cAMP production activity (%) at 70%; below is T, at or above is F.

{"MOLECULE": "O=C1NC(C2CCCCC2)=NC12CCN(S(=O)(=O)CCCCCc1cccc3[nH]ccc13)CC2", "CAT": "T"}
{"MOLECULE": "CC(=O)Nc1cccc(C)c1CCS(=O)(=O)N1CCC2(CC1)N=C(C1CCCCC1)NC2=O", "CAT": "T"}
{"MOLECULE": "Cc1cc(C2=NC3(CCN(S(=O)(=O)CCc4c(C)cc(C(=O)N5CCC(O)(CF)CC5)cc4C)CC3)C(=O)N2)ccc1C(F)(F)F", "CAT": "F"}
{"MOLECULE": "O=C1NC(c2ccc(C(F)(F)F)cc2)=NC12CCN(S(=O)(=O)c1cccc(Cl)c1)CC2", "CAT": "T"}
{"MOLECULE": "COCCCCCCCC1=NC2(CCN([S@TB18](=O)(=O)/C=C/c3c(C)cc(N(C)C(N)=O)cc3C)CC2)C(=O)N1", "CAT": "F"}
{"MOLECULE": "Cc1cc(C(=O)N2CCC(C)(O)CC2)cc(C)c1/C=C/S(=O)(=O)N1CCC2(CC1)N=C(c1ccc(OCCCC(F)(F)C(F)(F)F)c(C(F)(F)F)c1)NC2=O", "CAT": "F"}
{"MOLECULE": "Cc1cc(C(=O)N2CCCO2)cc(C)c1/C=C/S(=O)(=O)N1CCC2(CC1)N=C(C1CCC(C)CC1)NC2=O (stereo not drawn)", "CAT": "T"}
{"MOLECULE": "Cc1cc(C(=O)N2CCCCC2)ccc1CCS(=O)(=O)N1CCC2(CC1)N=C(c1cccc(C(F)(F)F)c1)NC2=O", "CAT": "F"}
{"MOLECULE": "Cc1cc(N(C)C(N)=O)cc(C)c1/C=C/S(=O)(=O)N1CCC2(CC1)N=C(C1CCC(C(F)(F)F)CC1)NC2=O (stereo not drawn)", "CAT": "F"}
{"MOLECULE": "Cc1cc(N(C)C(N)=O)cc(C)c1/C=C/S(=O)(=O)N1CCC2(CC1)N=C(CCCCCCCCCC(=O)O)NC2=O", "CAT": "T"}
{"MOLECULE": "Cc1cc(C(=O)N(C)C)ccc1CCS(=O)(=O)N1CCC2(CC1)N=C(CC1CCCCC1)NC2=O", "CAT": "F"}
{"MOLECULE": "Cc1cc(S(=O)(=O)NCCN(C)C)ccc1/C=C/S(=O)(=O)N1CCC2(CC1)N=C(C1CCCCC1)NC2=O", "CAT": "T"}
{"MOLECULE": "Cc1c(/C=C/S(=O)(=O)N2CCC3(CC2)N=C(c2cccc(OC(F)(F)F)c2)NC3=O)cccc1OCCC(O)CO (stereo not drawn)", "CAT": "F"}
{"MOLECULE": "Cc1cc(C(=O)N2CCC(O)(CF)CC2)cc(C)c1/C=C/S(=O)(=O)N1CCC2(CC1)N=C(c1ccc(OCCCC(F)(F)F)c(C(F)(F)F)c1)NC2=O", "CAT": "T"}
{"MOLECULE": "Cc1cc(N(C)C(N)=O)cc(Cl)c1CCS(=O)(=O)N1CCC2(CC1)N=C(C1CCC(C)CC1)NC2=O (stereo not drawn)", "CAT": "F"}
{"MOLECULE": "CC(=O)N(CCOCCO)c1cc(C)c(/C=C/S(=O)(=O)N2CCC3(CC2)N=C(C2CCC(CCC(F)(F)F)CC2)NC3=O)c(C)c1 (stereo not drawn)", "CAT": "F"}
{"MOLECULE": "Cc1cc(N2CCCCC2=O)cc(C)c1CCS(=O)(=O)N1CCC2(CC1)N=C(C1CCC(C)CC1)NC2=O (stereo not drawn)", "CAT": "F"}
{"MOLECULE": "O=C1NC(C2CCCCC2)=NC12CCN(S(=O)(=O)/C=C/c1cccc(F)c1C(F)(F)F)CC2", "CAT": "T"}
{"MOLECULE": "Cc1cc(CN2C(=O)CCC2=O)cc(C)c1/C=C/S(=O)(=O)N1CCC2(CC1)N=C(C1CCC(C)CC1)NC2=O (stereo not drawn)", "CAT": "T"}
{"MOLECULE": "Cc1cc(C(=O)N2CCN(C(C)C)CC2)ccc1/C=C/S(=O)(=O)N1CCC2(CC1)N=C(c1cccc(OC(F)(F)F)c1)NC2=O", "CAT": "F"}
{"MOLECULE": "Cc1ccc(C(=O)N(C)C)cc1-c1ccc(S(=O)(=O)N2CCC3(CC2)N=C(c2ccc(F)c(C(F)(F)F)c2)NC3=O)s1", "CAT": "T"}
{"MOLECULE": "Cc1cc(C(=O)N(C)C)ccc1CCS(=O)(=O)N1CCC2(CC1)N=C(C1(C(F)(F)F)CCCC1)NC2=O", "CAT": "T"}
{"MOLECULE": "Cc1cc(C(=O)N(C)C)ccc1CCS(=O)(=O)N1CCC2(CC1)N=C(/C=C/c1cccc(C(F)(F)F)c1)NC2=O", "CAT": "T"}
{"MOLECULE": "Cc1cc(N(CC(F)(F)F)C(N)=O)ccc1/C=C/S(=O)(=O)N1CCC2(CC1)N=C(c1cccc(OC(F)(F)F)c1)NC2=O", "CAT": "T"}
{"MOLECULE": "Cc1cc(N(C)C(N)=O)cc(C)c1CCS(=O)(=O)N1CCC2(CC1)N=C(c1ccc(C(C)(C)C)cc1)NC2=O", "CAT": "F"}
